Measured IC50, listed per entry for reference.
# assayed_system: SUMO-activating enzyme (Homo sapiens, UniProt Q9UBT2)
# Sequence (Q9UBE0 whole entry): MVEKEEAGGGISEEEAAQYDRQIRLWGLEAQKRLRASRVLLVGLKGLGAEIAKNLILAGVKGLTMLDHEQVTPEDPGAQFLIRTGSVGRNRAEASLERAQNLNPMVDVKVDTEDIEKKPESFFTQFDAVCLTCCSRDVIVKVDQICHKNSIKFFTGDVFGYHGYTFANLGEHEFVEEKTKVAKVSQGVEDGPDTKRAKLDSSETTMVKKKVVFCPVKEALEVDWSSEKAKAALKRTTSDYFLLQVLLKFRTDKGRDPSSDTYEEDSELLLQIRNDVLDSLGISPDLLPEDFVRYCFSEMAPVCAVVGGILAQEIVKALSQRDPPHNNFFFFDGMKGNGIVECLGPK
# Sequence (Q9UBT2 whole entry): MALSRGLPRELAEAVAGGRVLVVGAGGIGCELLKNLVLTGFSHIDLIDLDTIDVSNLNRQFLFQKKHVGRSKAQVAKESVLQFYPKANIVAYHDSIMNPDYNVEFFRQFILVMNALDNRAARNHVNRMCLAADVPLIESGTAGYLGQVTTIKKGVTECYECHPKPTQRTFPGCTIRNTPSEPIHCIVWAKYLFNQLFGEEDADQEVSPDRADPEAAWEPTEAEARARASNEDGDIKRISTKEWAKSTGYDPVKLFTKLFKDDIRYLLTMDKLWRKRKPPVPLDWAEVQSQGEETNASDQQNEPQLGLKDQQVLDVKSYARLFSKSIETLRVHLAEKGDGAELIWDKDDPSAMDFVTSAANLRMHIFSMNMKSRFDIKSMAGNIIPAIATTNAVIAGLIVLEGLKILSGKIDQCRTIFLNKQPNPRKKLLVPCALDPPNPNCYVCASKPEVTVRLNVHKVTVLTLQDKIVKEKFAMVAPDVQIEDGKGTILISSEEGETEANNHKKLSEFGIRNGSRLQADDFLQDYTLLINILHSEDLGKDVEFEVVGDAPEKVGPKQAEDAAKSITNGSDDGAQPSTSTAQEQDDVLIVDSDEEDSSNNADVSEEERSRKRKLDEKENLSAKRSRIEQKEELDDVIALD
# measurement_notes: blockers of SAE1/SAE2–UBC9 SUMO transfer – biochemical, HTRF, uHTS, primary screen (AID 2006)
# Type: protein-complex assay
Activity calls are given as the source filed them.

| molecule | IC50 |
| --- | --- |
| COc1cccc(/C=N\NC(=O)C2=NNC(=O)C2C)c1O (centres undefined) | 18.3 µM (active) |
| COc1cc(NC(=O)c2cnc(N)s2)cc(C(=O)Nc2cccc(C(F)(F)F)c2)c1 | 34.5 µM (active) |

Entry "COc1cccc(-c2nc(SCC(=O)Nc3nc(-c4ccccc4)c(C)s3)[nH]c(=O)c2C#N)c1" , IC50 reported as 15.2 µM (active)

Value of measured IC50 for the entry "COc1cc2c(cc1OC)-c1cc3ccc4c(c3c[n+]1CC2)OCO4" : 8.68 µM (active)

###

# assayed_system: Short transient receptor potential channel 4 (Mus musculus)
# Sequence (Q9QUQ5 whole entry): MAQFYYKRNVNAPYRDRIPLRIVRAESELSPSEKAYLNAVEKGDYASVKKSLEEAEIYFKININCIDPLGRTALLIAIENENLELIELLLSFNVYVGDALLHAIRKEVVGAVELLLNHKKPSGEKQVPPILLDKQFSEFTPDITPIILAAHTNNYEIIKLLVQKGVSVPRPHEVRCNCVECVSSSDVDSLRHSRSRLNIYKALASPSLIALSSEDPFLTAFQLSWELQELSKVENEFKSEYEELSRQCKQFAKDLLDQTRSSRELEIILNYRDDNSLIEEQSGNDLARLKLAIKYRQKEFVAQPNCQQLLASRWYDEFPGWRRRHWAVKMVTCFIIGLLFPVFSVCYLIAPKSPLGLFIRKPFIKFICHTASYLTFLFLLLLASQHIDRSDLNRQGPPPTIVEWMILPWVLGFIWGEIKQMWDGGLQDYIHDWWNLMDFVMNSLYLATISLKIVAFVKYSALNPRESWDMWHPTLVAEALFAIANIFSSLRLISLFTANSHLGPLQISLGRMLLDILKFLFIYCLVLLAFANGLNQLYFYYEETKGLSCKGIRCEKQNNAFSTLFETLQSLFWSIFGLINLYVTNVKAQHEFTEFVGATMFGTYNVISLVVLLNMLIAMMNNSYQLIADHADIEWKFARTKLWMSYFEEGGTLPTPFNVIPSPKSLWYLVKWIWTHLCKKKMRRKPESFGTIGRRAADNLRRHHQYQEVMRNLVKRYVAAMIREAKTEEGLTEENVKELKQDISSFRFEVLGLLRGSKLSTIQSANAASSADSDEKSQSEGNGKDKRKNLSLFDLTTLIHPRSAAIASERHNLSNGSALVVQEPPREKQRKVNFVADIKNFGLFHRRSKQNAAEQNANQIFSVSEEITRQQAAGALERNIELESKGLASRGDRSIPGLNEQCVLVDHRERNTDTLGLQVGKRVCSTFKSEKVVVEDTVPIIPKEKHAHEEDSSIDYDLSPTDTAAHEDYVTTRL
# measurement_notes: calcium entry via TRPC4 opening agents – cell-based, HEK293 TRPC4/mu-opioid, Fluo-4 calcium, dose response (AID 434937)
# Type: functional
Calls of active or inactive are those of the source.
parameter: EC50

Take a look at these entries with their results.
| molecule | EC50 |
| --- | --- |
| O=c1c2cc(Br)ccc2nc(-c2cccc(Cl)c2)n1O | 9440 nM (active) |
| CN(C)C(CN=C(S)Nc1cccc(Cl)c1)c1cccnc1 (centres undefined) | 13.3 nM (active) |
| COc1ccccc1/C=C/CN1CCCC(CCC(=O)NCc2ccc(F)c(F)c2)C1 (centres undefined) | 168 nM (active) |

Lab note: "Cc1ccccc1C(=O)Nc1c(C(=O)N(CCN(C)C)Cc2ccco2)oc2ccccc12" gave EC50 of 4220 nM (active)

###

# assayed_system: Cytochrome P450 2C9 (Homo sapiens, UniProt P11712)
# Sequence (P11712 whole entry): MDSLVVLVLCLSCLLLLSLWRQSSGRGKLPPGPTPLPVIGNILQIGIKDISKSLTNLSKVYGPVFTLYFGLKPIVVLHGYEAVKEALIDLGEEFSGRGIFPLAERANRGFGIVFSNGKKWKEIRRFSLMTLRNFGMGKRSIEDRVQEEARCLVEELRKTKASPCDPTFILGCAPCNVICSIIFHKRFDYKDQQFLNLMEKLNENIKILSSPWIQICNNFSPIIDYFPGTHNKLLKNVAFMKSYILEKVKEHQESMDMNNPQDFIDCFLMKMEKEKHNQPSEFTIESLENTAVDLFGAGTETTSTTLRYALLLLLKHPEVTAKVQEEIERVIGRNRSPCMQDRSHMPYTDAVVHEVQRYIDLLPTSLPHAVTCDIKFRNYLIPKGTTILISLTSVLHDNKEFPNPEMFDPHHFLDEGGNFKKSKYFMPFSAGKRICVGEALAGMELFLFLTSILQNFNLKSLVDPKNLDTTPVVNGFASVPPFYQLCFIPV
parameter: AC50

| smiles_data | parameter | observed_value |
| --- | --- | --- |
| O=c1c(-c2ccc(Cl)cc2)nc2cnc(N3CCOCC3)nc2n1-c1ccccc1 | AC50 | inconclusive |
| Cn1cccc1C(=O)C(=O)Nc1cccc(Cl)c1Cl | AC50 | inconclusive |
| Cc1ccc(NC(=O)C2CCN(S(=O)(=O)c3c(C)n[nH]c3C)CC2)nc1 | AC50 | inconclusive |
| CN(C)c1ccc(/C=C2\SC(=S)N(Nc3ncc(C(F)(F)F)cc3Cl)C2=O)cc1 | AC50 | inconclusive |

Okay, now this molecule:
Entry "COc1ccc(C(=O)Nc2ccc(F)cc2F)cc1OC" , Cytochrome P450 2C9 (Homo sapiens, UniProt P11712) data, AC50 value: inconclusive

###

# assayed_system: UniProt:P30556
# Sequence (P30556 whole entry): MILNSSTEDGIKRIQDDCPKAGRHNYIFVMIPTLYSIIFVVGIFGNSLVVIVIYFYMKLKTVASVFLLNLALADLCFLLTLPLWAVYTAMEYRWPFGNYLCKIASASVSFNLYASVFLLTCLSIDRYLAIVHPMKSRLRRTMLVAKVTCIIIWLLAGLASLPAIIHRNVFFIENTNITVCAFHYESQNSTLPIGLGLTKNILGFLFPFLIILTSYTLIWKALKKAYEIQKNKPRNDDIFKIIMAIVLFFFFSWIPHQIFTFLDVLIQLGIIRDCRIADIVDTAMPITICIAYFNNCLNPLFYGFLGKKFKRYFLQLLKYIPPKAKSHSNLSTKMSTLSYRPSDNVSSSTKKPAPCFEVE
# measurement_notes: antagonism of angiotensin II type 1 receptor – cell-based, uHTS hits, selectivity assay for APJ receptor antagonist project, dose response (AID 463214);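 further: antagonist potency against angiotensin II stimulated AT1 response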
# Assay type: functional
Calls of active or inactive are those of the source.
parameter: IC50

| compound | assayed_system | IC50 |
| --- | --- | --- |
| CC(C(=O)OCC(=O)c1cccc([N+](=O)[O-])c1)N1C(=O)C2C3C=CC(C3)C2C1=O (stereo not given) | UniProt:P30556 | > 40 µM (not active) |

The value of IC50 measured for the compound "COC(=O)C1=C(C)N(Cc2ccccc2)C(=NCC(C)C)N[C@H]1c1cccc(F)c1" turned out to be > 40 µM (not active)

Quick note, IC50 for "CCOc1ccc(CCNC(=O)c2cccnc2N2CCCC2)cc1OCC" landed at > 40 µM (not active)

The reported value for "O=C(Nc1nc(-c2ccccn2)cs1)c1cc(Cl)ccc1[N+](=O)[O-]" in terms of IC50 is 5.37 µM (active)

Input "CC(=O)OCCCNc1cc(Sc2ccc(C)cc2)c2nonc2c1[N+](=O)[O-]" . Output IC50: 1.56 µM (active)

The origin of these recorded values is ChEMBL document CHEMBL1201862.
